Reported Water Activity of humectant solution is given for each of the following molecules.
assay: Water activity of humectant solutions (AquaLab CX-2); format: physicochemical; conditions: solution concentration 8%
measured.property: Water Activity of humectant solution

- O=C([O-])[O-].[K+].[K+] [Formulation K2CO3]: 0.973
- [Cl-].[K+] [KCl, potassium chloride]: 0.952
- O.O.O.O.O.O.[Cl-].[Cl-].[Mg+2] [MgCl2]: 0.944
- [Cl-].[Na+] [NaCl, sodium chloride]: 0.949
- OCC(O)CO [Glycerol, glycerol]: 0.975

---

Reported Water Activity of humectant solution is given for each of the following molecules.
assay: Water activity of humectant solutions (AquaLab CX-2); type: physicochemical; settings: solution concentration 12%
measured.property: Water Activity of humectant solution

• O.O.O.O.O.O.[Cl-].[Cl-].[Mg+2] [MgCl2] = 0.904
• [Cl-].[K+] [KCl, potassium chloride] = 0.938
• OCC(O)CO [Glycerol, glycerol] = 0.966
• O=C([O-])[O-].[K+].[K+] [Formulation K2CO3] = 0.957
• [Cl-].[Na+] [NaCl, sodium chloride] = 0.919

---

test: Water activity of humectant solutions (AquaLab CX-2); assay type: physicochemical; settings: solution concentration 10%
Reported Water Activity of humectant solution is given for each of the following compounds.
measured.property: Water Activity of humectant solution

- [Cl-].[Na+] [NaCl, sodium chloride]: 0.936
- O.O.O.O.O.O.[Cl-].[Cl-].[Mg+2] [MgCl2]: 0.926
- O=C([O-])[O-].[K+].[K+] [Formulation K2CO3]: 0.960
- OCC(O)CO [Glycerol, glycerol]: 0.971
- [Cl-].[K+] [KCl, potassium chloride]: 0.950

Ref: patent US8304454B2
